# inhibition per record follows
measurement-target: 5-hydroxytryptamine receptor 1A (Homo sapiens) (UniProt P08908)
Sequence (P08908 whole entry): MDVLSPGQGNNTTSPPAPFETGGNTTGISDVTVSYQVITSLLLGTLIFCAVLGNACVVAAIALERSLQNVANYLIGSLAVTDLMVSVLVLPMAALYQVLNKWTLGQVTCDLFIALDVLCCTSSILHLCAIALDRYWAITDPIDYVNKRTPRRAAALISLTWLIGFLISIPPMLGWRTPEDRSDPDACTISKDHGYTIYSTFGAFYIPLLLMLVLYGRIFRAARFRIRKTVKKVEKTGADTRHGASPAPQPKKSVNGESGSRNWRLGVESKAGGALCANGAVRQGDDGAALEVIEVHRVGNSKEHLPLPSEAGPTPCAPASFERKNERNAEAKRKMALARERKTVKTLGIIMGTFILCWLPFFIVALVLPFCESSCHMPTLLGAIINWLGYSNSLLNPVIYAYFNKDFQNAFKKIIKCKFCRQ
method-notes: Displacement of [3H]-8-OH-DPAT from 5HT1A receptor (unknown origin) expressed in HEK293 cells membranes at 1 uM incubated for 60 mins by scintillation counting method relative to control
Format: cell membranes
Write the figure, then the unit, nothing else.

Past entries and their recorded results:
- Fc1ccc2[nH]cc(C3CCN(CCOc4ccc(F)c(-c5ccccc5)c4)CC3)c2c1: 96.9%
- Cc1ccc(-c2cc(F)ccc2OCCN2CCC(c3c[nH]c4ccc(F)cc34)CC2)cc1: 94.5%
- Fc1ccc(-c2cc(F)ccc2OCCN2CCC(c3c[nH]c4ccc(F)cc34)CC2)cc1: 97.4%
- COc1ccc(-c2cc(F)ccc2OCCN2CCC(c3c[nH]c4ccc(F)cc34)CC2)cc1: 98.7%
- Fc1ccc(OCCN2CCC(c3c[nH]c4ccc(F)cc34)CC2)c(-c2ccc(Cl)cc2)c1: 95%
- Fc1cccc(-c2cc(F)ccc2OCCN2CCC(c3c[nH]c4ccc(F)cc34)CC2)c1: 95.9%

Given the molecule Fc1ccc(OCCN2CCC(CCc3c[nH]c4ccc(F)cc34)CC2)c(-c2ccccc2)c1 and test system 5-hydroxytryptamine receptor 1A (Homo sapiens) (UniProt P08908), the measured inhibition is 54.3%

Given the molecule N#Cc1ccc(-c2cc(F)ccc2OCCN2CCC(c3c[nH]c4ccc(F)cc34)CC2)cc1 and test system 5-hydroxytryptamine receptor 1A (Homo sapiens) (UniProt P08908), the measured inhibition is 97.5%

Given the molecule Fc1ccc(OCCCN2CCC(Cc3c[nH]c4ccc(F)cc34)CC2)c(-c2ccccc2)c1 and test system 5-hydroxytryptamine receptor 1A (Homo sapiens) (UniProt P08908), the measured inhibition is 81.9%

---

method-notes: Clearance in rat liver microsomes at 1 uM in presence of NADPH generating system measured for 10 to 90 mins by LC-MS/MS analysis
Assay type: ADME, Microsome
protocol-conditions: read-out: CLH
recorded-endpoint: microsomal CLint at 1 µM (µL/min/mg)
Give the value, in units of µL/min/mg, as a plain number.

* Fc1cccc(-c2cc(F)ccc2OCCN2CCC(c3c[nH]c4ccc(F)cc34)CC2)c1 | 60.4

Let's switch to this compound now.
microsomal CLint at 1 µM recorded for this compound, Fc1ccc(OCCN2CCC(c3c[nH]c4ccc(F)cc34)CC2)c(-c2ccccc2)c1 , is 40.2

---

measurement-target: 5-hydroxytryptamine receptor 7 (Homo sapiens)
Sequence (P34969 whole entry): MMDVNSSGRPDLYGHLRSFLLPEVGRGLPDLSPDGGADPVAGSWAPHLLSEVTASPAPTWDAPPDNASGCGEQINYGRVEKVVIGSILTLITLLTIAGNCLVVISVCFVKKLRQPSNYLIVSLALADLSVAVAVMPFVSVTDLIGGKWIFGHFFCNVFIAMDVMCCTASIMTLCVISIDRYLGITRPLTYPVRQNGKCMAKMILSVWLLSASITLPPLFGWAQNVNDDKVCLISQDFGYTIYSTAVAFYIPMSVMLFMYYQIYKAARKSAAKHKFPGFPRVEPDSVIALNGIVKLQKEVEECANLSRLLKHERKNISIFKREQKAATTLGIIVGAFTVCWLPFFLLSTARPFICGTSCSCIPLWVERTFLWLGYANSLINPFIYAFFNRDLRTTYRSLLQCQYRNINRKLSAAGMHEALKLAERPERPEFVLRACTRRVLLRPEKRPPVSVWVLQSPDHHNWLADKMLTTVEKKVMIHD
method-notes: Displacement of [3H]-LSD from 5HT7 receptor (unknown origin) expressed in CHO cell membranes incubated for 120 mins by scintillation counting method
recorded-endpoint: pKi
Quick note: pKi means taking -log10 of the concentration in moles per liter.

pKi recorded for this compound, Fc1ccc(OCCN2CCC(c3c[nH]c4ccc(F)cc34)CC2)c(-c2ccccc2)c1 , is 7.60

---

measurement-target: UniProtKB P31652
Sequence (P31652 whole entry): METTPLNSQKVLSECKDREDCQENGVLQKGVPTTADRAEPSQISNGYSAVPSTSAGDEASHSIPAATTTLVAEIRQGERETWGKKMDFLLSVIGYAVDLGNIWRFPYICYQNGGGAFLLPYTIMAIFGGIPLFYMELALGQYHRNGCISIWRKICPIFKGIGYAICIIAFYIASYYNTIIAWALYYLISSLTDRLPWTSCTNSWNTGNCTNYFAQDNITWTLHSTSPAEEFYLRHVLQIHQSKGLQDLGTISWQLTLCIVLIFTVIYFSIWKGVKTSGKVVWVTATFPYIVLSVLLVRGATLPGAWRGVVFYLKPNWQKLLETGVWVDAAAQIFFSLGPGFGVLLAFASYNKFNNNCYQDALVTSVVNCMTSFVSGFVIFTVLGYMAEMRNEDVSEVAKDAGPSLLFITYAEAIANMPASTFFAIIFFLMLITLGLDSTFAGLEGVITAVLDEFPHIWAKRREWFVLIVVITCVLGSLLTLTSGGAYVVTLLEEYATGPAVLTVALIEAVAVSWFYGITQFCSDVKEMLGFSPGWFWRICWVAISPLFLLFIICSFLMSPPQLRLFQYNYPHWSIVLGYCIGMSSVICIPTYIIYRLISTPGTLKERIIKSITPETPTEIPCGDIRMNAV
method-notes: Inhibition of rat synaptosomes 5HT transporter assessed as reduction in [3H]serotonin reuptake at 1 uM incubated for 15 mins by scintillation counting method relative to control
Assay type: subcellular
recorded-endpoint: inhibition (%)
Give the value, in units of %, as a plain number.

- Fc1cccc(-c2cc(F)ccc2OCCN2CCC(c3c[nH]c4ccc(F)cc34)CC2)c1: 94.3
- Fc1ccc(OCCCN2CCC(Cc3c[nH]c4ccc(F)cc34)CC2)c(-c2ccccc2)c1: 102
- Fc1ccc(OCCN2CCC(c3c[nH]c4ccc(F)cc34)CC2)c(-c2ccc(Cl)cc2)c1: 27.3
- Cc1ccc(Sc2ccccc2N2CCNCC2)c(C)c1: 101

Let's switch to this compound now.
inhibition recorded for this compound, Fc1ccc(OCCCN2CCC(c3c[nH]c4ccc(F)cc34)CC2)c(-c2ccccc2)c1 , is 87
